Source listed as ChEMBL document CHEMBL1124128.

target: Angiotensin-converting enzyme (Oryctolagus cuniculus)
Sequence (P12822 whole entry): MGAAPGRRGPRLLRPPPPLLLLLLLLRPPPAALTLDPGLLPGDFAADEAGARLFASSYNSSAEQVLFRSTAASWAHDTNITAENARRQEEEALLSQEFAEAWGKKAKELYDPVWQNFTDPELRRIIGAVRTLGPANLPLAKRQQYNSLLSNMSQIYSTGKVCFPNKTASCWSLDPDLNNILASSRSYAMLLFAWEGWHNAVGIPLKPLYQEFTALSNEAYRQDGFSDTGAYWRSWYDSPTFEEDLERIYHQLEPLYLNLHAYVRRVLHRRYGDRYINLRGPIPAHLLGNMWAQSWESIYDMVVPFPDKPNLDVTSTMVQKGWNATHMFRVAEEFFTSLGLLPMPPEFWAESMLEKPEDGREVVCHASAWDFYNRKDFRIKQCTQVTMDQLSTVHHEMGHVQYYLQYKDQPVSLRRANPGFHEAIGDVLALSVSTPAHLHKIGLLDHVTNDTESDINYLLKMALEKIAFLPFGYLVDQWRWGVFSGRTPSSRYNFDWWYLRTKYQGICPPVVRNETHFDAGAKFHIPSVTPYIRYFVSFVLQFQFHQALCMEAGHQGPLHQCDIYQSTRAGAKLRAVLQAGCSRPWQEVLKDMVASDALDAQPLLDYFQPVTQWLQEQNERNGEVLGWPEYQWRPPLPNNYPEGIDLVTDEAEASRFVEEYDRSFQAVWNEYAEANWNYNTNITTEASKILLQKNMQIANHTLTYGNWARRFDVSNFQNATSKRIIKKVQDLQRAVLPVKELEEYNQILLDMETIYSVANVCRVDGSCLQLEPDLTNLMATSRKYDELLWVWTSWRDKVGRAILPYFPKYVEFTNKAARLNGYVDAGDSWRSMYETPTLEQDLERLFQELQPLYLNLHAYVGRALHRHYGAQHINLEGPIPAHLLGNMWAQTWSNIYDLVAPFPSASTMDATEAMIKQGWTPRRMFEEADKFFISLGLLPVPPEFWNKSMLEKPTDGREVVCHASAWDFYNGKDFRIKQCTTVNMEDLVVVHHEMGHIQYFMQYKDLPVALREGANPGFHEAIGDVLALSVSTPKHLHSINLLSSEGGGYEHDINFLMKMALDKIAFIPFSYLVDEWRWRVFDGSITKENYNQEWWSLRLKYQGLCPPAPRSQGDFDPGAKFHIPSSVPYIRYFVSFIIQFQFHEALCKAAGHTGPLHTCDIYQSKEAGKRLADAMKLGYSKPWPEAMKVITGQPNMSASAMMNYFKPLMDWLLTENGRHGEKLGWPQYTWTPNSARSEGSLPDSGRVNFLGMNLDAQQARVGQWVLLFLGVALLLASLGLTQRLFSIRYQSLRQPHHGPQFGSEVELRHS

structure.as.smiles: O=C(O)[C@@H]1C[C@@H](C2CCCCC2)CN1C(=O)CP(=O)(O)CCCCc1ccccc1
target.desc: Angiotensin-converting enzyme (Oryctolagus cuniculus)
Ki / nM: 1.5

###

Below, each of the compounds is paired with its reported inhibition in vivo at 0.15 µmol/kg value.
tested on: Rattus norvegicus; assay: % Inhibition of angiotensin-I induced pressor response in normotensive rats after intravenous dosing of 0.15 umol/kg; assay type: functional

compound: C[C@H](N[C@@H](CCc1ccccc1)C(=O)O)C(=O)N1C[C@@H](C2CCCCC2)C[C@H]1C(=O)O
target.desc: Rattus norvegicus
readout.unit: %
inhibition in vivo at 0.15 µmol/kg: 92
--
compound: O=C(O)[C@@H]1C[C@H](C2CCCCC2)CN1C(=O)CP(=O)(O)CCCCc1ccccc1
target.desc: Rattus norvegicus
readout.unit: %
inhibition in vivo at 0.15 µmol/kg: 73
--
compound: CS[C@@H]1C[C@@H](C(=O)O)N(C(=O)[C@H](C)N[C@@H](CCc2ccccc2)C(=O)O)C1
target.desc: Rattus norvegicus
readout.unit: %
inhibition in vivo at 0.15 µmol/kg: 77
--
compound: CS[C@H]1C[C@@H](C(=O)O)N(C(=O)CP(=O)(O)CCCCc2ccccc2)C1
target.desc: Rattus norvegicus
readout.unit: %
inhibition in vivo at 0.15 µmol/kg: 29
--
compound: O=C(O)[C@@H]1C[C@H](Sc2ccccc2)CN1C(=O)CP(=O)(O)CCCCc1ccccc1
target.desc: Rattus norvegicus
readout.unit: %
inhibition in vivo at 0.15 µmol/kg: 27
--
compound: CO[C@H]1C[C@@H](C(=O)O)N(C(=O)CP(=O)(O)CCCCc2ccccc2)C1
target.desc: Rattus norvegicus
readout.unit: %
inhibition in vivo at 0.15 µmol/kg: 55
--
compound: CS[C@@H]1C[C@@H](C(=O)O)N(C(=O)CP(=O)(O)CCCCc2ccccc2)C1
target.desc: Rattus norvegicus
readout.unit: %
inhibition in vivo at 0.15 µmol/kg: 27
--
compound: C[C@H](N[C@@H](CCc1ccccc1)C(=O)O)C(=O)N1CCC[C@H]1C(=O)O [ENALAPRILAT ANHYDROUS]
target.desc: Rattus norvegicus
readout.unit: %
inhibition in vivo at 0.15 µmol/kg: 90
--
compound: C[C@H](N[C@@H](CCc1ccccc1)C(=O)O)C(=O)N1C[C@@H](Sc2ccccc2)C[C@H]1C(=O)O
target.desc: Rattus norvegicus
readout.unit: %
inhibition in vivo at 0.15 µmol/kg: 85
--
compound: O=C(O)[C@@H]1C[C@@H](c2ccccc2)CN1C(=O)CP(=O)(O)CCCCc1ccccc1
target.desc: Rattus norvegicus
readout.unit: %
inhibition in vivo at 0.15 µmol/kg: 37
--
compound: O=C(O)[C@@H]1C[C@@H](C2CCCCC2)CN1C(=O)CP(=O)(O)CCCCc1ccccc1
target.desc: Rattus norvegicus
readout.unit: %
inhibition in vivo at 0.15 µmol/kg: 68
--
compound: O=C(O)[C@@H]1C[C@@H](Sc2ccccc2)CN1C(=O)CP(=O)(O)CCCCc1ccccc1
target.desc: Rattus norvegicus
readout.unit: %
inhibition in vivo at 0.15 µmol/kg: 19
--
compound: O=C(O)[C@@H]1CC2(CN1C(=O)CP(=O)(O)CCCCc1ccccc1)SCCS2
target.desc: Rattus norvegicus
readout.unit: %
inhibition in vivo at 0.15 µmol/kg: 80
--
compound: C[C@H](CS)C(=O)N1CCC[C@H]1C(=O)O
target.desc: Rattus norvegicus
readout.unit: %
inhibition in vivo at 0.15 µmol/kg: 66
--
compound: O=C(O)[C@@H]1C[C@H](c2ccccc2)CN1C(=O)CP(=O)(O)CCCCc1ccccc1
target.desc: Rattus norvegicus
readout.unit: %
inhibition in vivo at 0.15 µmol/kg: 69
